Provide the recorded Kd for the entries that follow.
# TEST_TARGET: T1, p19 (Carnation Italian ringspot virus (CIRV), UniProt Q66104 1-172)
# T1 sequence: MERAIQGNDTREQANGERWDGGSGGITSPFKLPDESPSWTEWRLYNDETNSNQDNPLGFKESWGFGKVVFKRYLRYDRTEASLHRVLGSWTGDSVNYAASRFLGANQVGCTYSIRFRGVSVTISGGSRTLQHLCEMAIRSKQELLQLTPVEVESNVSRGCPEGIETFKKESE
# TEST_SUMMARY: EMSA
# STATED_CONDITIONS: protein: recombinant; tags: GST (pGEX-6P-1) removed by PreScission protease; chain copies: 2; miRNA duplex with mismatches, 3' overhangs
Only the number, expressed in nM, is required.

NbmiR403a (dsRNA, 5' phosphate on both strands) RNA 1: UUAGAUUCACGCACAAACUCG RNA 2: UGUUUGUGCGUGAAUCUGACA yielded Kd of 0.11

AtmiR168a (= NbmiR168d,e) (dsRNA, 5' phosphate on both strands) RNA 1: UCGCUUGGUGCAGGUCGGGAA RNA 2: CCCGCCUUGCAUCAACUGAAU yielded Kd of 2.29

NbmiR403b (dsRNA, 5' phosphate on both strands) RNA 1: UUAGAUUCACGCACAAACUCG RNA 2: UGUUUGUGCGUGAUUCUGACA yielded Kd of 0.37

AtmiR162 (= NbmiR162b per Table 1) (dsRNA, 5' phosphate on both strands) RNA 1: UCGAUAAACCUCUGCAUCCAG RNA 2: GGAGGCAGCGGUUCAUCGAUC yielded Kd of 0.07
